- Tested on: HCV 1a genotype replicon
- assay.remarks: HCV replicon assay (qRT-PCR or luciferase), genotype 1a
- Type: cell-based
- measurement.setup: Hepatitis C virus, Table 12, range class, read-out: 1a EC50 Range
pEC50: −log10 of the molar value.
Below: a set of entries, each annotated with reported pEC50.

compound	pEC50
CC[C@@H](C)[C@H](NC(=O)OC)C(=O)N1CC2(CC2)C[C@H]1c1nc2ccc(C#Cc3ccc(-c4cnc([C@@H]5CC6(CC6)CN5C(=O)[C@@H](NC(=O)OC)C(C)C)[nH]4)cc3)cc2[nH]1 [Example 656]	> 9.00
[2H]c1c([2H])c(-c2c[nH]c([C@@H]3CC4(CC4)CN3C(=O)[C@@H](NC(=O)OC)C(C)C)n2)c([2H])c([2H])c1C#Cc1ccc2[nH]c([C@@H]3CC4(CC4)CN3C(=O)[C@@H](NC(=O)OC)C(C)C)nc2c1 [Example 575]	> 9.00
